molecular target: Opioid receptors; mu & delta (Homo sapiens) (UniProt P41143+P35372); experiment: Selectivity for cloned human mu opioid receptor over delta opioid receptor; assay type: protein assay
Sequence (P35372 whole entry, looked up): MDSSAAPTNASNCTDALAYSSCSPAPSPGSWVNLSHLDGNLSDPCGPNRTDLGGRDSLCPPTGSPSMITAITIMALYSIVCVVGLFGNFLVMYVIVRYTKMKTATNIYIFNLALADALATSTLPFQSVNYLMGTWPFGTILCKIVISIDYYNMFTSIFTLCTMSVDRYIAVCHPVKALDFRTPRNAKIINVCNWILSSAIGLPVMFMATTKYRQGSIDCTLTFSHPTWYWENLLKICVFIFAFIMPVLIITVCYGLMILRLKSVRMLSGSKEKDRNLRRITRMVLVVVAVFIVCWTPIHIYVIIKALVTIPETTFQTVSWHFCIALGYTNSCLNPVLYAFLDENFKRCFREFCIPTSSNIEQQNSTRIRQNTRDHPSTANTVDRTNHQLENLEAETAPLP
Sequence (P41143 whole entry, looked up): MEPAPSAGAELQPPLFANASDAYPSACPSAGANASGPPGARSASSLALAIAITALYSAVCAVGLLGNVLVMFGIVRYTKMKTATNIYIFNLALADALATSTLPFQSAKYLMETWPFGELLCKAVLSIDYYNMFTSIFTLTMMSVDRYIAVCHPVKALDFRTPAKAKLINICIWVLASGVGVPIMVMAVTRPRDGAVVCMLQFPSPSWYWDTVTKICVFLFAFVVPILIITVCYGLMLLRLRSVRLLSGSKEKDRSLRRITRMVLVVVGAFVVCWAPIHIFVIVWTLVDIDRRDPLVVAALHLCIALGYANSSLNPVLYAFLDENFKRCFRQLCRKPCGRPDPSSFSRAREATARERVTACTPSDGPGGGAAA
EXPERIMENTAL ENDPOINT: Ratio Ki

query_smiles=O=C(Nc1ccc(F)cc1)N1CCC(c2ccccc2)(c2nccn2Cc2ccccc2)CC1 experimental_endpoint="Ratio Ki" measured=12
query_smiles=c1ccc(Cn2ccnc2C2(c3ccccc3)CCN(c3nccs3)CC2)cc1 experimental_endpoint="Ratio Ki" measured="> 58"
query_smiles=NS(=O)(=O)N1CCC(c2ccccc2)(c2nccn2Cc2ccccc2)CC1 experimental_endpoint="Ratio Ki" measured="> 44"
query_smiles=Cn1c(N2CCC(c3ccccc3)(c3nccn3Cc3ccccc3)CC2)nc2ccccc21 experimental_endpoint="Ratio Ki" measured=1.7
query_smiles=O=C(Nc1ccccc1)N1CCC(c2ccccc2)(c2nccn2Cc2ccccc2)CC1 experimental_endpoint="Ratio Ki" measured="> 5.7"
query_smiles=O=C(Nc1ccccc1)N1CCC(c2ccccc2)(c2nccn2Cc2ccccn2)CC1 experimental_endpoint="Ratio Ki" measured=0.46
query_smiles=O=C(Nc1ccccc1)N1CCC(c2ccccc2)(c2nccn2Cc2ccc(F)cc2)CC1 experimental_endpoint="Ratio Ki" measured="> 23"
